As shown below, each of these compounds has a reported TGI value.
# System: RPMI-8226 leukemia
# PROCEDURE_DETAILS: NCI tumour cell line growth inhibition, 48 h

Examples with their reported TGI follow.
1) CCC[CH2][Sn]([CH2]CCC)([O]C(=O)C(N)CSC)[O]C(=O)C(N)CSC (stereo not drawn) :: 7.58 µM
2) COc1cc([C@@H]2c3cc4c(cc3C[C@@H]3COC(=O)C32)OCO4)cc(OC)c1O (stereo partly drawn) :: 0.137 µM
3) CC/C(=C(/CC)c1ccc(O)cc1)c1ccc([O-])cc1.CC/C(=C(/CC)c1ccc(O)cc1)c1ccc([O-])cc1.O=C([CH-]C(=O)c1ccccc1)c1ccccc1.O=C([CH-]C(=O)c1ccccc1)c1ccccc1.[Ti+4] :: > 100 µM

[ask] Would you mind telling me what TGI value was observed for O=C(Nc1ccc(F)cc1)C(=O)C(C1OC(=O)c2ccccc21)[N+](=O)[O-] (stereo not drawn) ?
[reply] > 100 µM

[ask] Returns the measured TGI for the input compound. Input: `COc1ccc(-c2ccc(/C=N/n3c(COc4ccc(Cl)cc4Cl)nn(CN4CCN(C)CC4)c3=S)o2)c([N+](=O)[O-])c1`
[reply] 50 µM

[ask] Which TGI reading was recorded for the compound CCCN1CN(C(C(=O)N[C@@H]2C(=O)N3C(C(=O)O)=C(C)CSC23)c2ccc(O)cc2)CSC1=S (stereo partly drawn) ?
[reply] > 100 µM

[ask] I would be grateful if you could share the reported TGI for CC(=O)OC1COC(n2c(-c3ccc(Cl)cc3)cc(-c3ccccc3)c(C#N)c2=S)C(OC(C)=O)C1OC(C)=O (stereo not drawn) .
[reply] > 100 µM

[ask] TGI for `[O-][n+]1onc(-c2ccccc2)c1CN1CCOCC1` ?
[reply] > 100 µM
